All values here come from patent US6875748B2.

Assay: pH of the salt solutions
Format: physicochemical
Details: 150 mM unless otherwise indicated
Assign t whenever pH does not fall below 6; assign f whenever it does.

Solved entries (count: 3):
{"columns": ["compound", "answer-label"],
 "data": [
  ["[Cl-].[Cl-].[Mg+2] [Magnesium Chloride]", "f"],
  ["O=C([O-])C(=O)[O-].[Na+].[Na+] [Sodium Oxalate]", "t"],
  ["O=P([O-])([O-])OP(=O)([O-])[O-].[Na+].[Na+].[Na+].[Na+] [Sodium Pyrophosphate]", "t"]
]}

Enquiry: Could you please find out whether O=S(=O)([O-])[O-].[Na+].[Na+] [Sodium Sulfate] has pH that meets 6 or exceeds it?
Return: f

Enquiry: Has CC(=O)[O-].[Na+] [Sodium Acetate] a recorded pH greater than or equal to 6?
Return: t

Enquiry: Say whether O=P([O-])(O)O.[Na+] [Sodium monobasic, NaH2PO4] shows pH of 6 or more.
Return: f

Enquiry: Reported pH at or above 6? O=P([O-])([O-])O.[Na+].[Na+] [Sodium dibasic, Na2HPO4]
Return: t

Enquiry: Does the reported pH for O=C([O-])CC(O)(CC(=O)[O-])C(=O)[O-].[Na+].[Na+].[Na+] [Sodium Citrate] fall at or above the 6 mark?
Return: t

Enquiry: // inclusive: pH at least 6? input: [Cl-].[Cl-].[Zn+2] [Zinc Chloride]
Return: f

Enquiry: Can O=C([O-])O.[Na+] [Sodium Bicarbonate] be said to have pH at or above 6?
Return: t

Enquiry: Kindly determine if pH recorded for O=P(O)(O)O [Sodium Phosphate] is above or exactly 6.
Return: t

---

Assay: Osmolarity of the salt solutions
Type: physicochemical
Conditions: 150 mM unless otherwise indicated
Mark class 1 only when Osm stays strictly below 300 mmol/kg. Values equal to the cut-off are class 0.

{"columns": ["compound", "answer-label"],
 "data": [
  ["CC(=O)C(=O)[O-].[Na+] [Sodium Pyruvate]", "class 1"],
  ["[Cl][Fe][Cl] [Ferrous Chloride]", "class 0"],
  ["O=P([O-])(O)O.[Na+] [Sodium monobasic, NaH2PO4]", "class 1"],
  ["CC(=O)[O-].[Na+] [Sodium Acetate]", "class 1"]
]}

Enquiry: Report whether reported Osm is lower than 300 mmol/kg (strictly) for O=P([O-])([O-])OP(=O)([O-])[O-].[Na+].[Na+].[Na+].[Na+] [Sodium Pyrophosphate]
Return: class 0

Enquiry: Hi there! Is Osm for [Cl-].[Cl-].[Zn+2] [Zinc Chloride] below 300 mmol/kg, do you know?
Return: class 0

Enquiry: Could you please tell me whether Osm recorded for O=P([O-])([O-])O.[Na+].[Na+] [Sodium dibasic, Na2HPO4] is less than 300 mmol/kg?
Return: class 0

Enquiry: Check if Osm falls below 300 mmol/kg for O=S(=O)([O-])[O-].[Na+].[Na+] [Sodium Sulfate] .
Return: class 0

Enquiry: Does this compound meet the criterion Osm < 300 mmol/kg? O=C([O-])O.[Na+] [Sodium Bicarbonate]
Return: class 0

---

# pH listing for each entry below
Experiment: pH of the salt solutions
Format: physicochemical
Details: 150 mM unless otherwise indicated
The reply should be a number, written without any unit.

{"columns": ["compound", "pH"],
 "data": [
  ["[Ca+2].[Cl-].[Cl-] [Calcium Chloride]", 5.5],
  ["CC(=O)C(=O)[O-].[Na+] [Sodium Pyruvate]", 6.0],
  ["[Cl-].[Na+] [Sodium Chloride, reference compound]", 5.5],
  ["[Cl-].[K+] [Potassium Chloride]", 5.5],
  ["[Cl][Fe][Cl] [Ferrous Chloride]", 5.0]
]}

API: the following record is the query input.
Enquiry: State, in one line, measured pH of O=P(O)(O)O [Potassium Phosphate]
Return: 7.5

---

Experiment: Osmolarity of the salt solutions
Type: physicochemical
Settings: 150 mM unless otherwise indicated
Osm values, listed per item
Express your answer in mmol/kg, writing the number without its unit.

{"columns": ["compound", "endpoint-unit", "Osm"],
 "data": [
  ["[Cl-].[K+] [Potassium Chloride]", "mmol/kg", 280],
  ["[Cl-].[Cl-].[Mg+2] [Magnesium Chloride]", "mmol/kg", 360]
]}

Enquiry: Please report Osm for the following compound: O=C([O-])CC(O)(CC(=O)[O-])C(=O)[O-].[Na+].[Na+].[Na+] [Sodium Citrate]
Return: 394

Enquiry: Give the reported value of Osm for this record: O=P(O)(O)O [Potassium Phosphate]
Return: 323

Enquiry: Please list Osm recorded for the compound [Ca+2].[Cl-].[Cl-] [Calcium Chloride]
Return: 362

Enquiry: Could you please provide reported Osm for O=C([O-])C(=O)[O-].[Na+].[Na+] [Sodium Oxalate] ? Thanks!
Return: 346
